Values from patent US9834558B2

Biological target: SIRT1 (Homo sapiens, UniProt Q96EB6)
Assay: Trp mass spectrometry assay of SIRT1 activation
Assay type: biochemical
Conditions: Trp mass spectrometry assay; concentration of test compound giving 150% activation of SIRT1

[
  {
    "molecule": "Cc1noc(C)c1-c1ccc2c(n1)N(C(=O)Nc1cnccn1)[C@H]1CCN2C1 [Example 413]",
    "Tryp AVG EC1.5 (μM)": "C (C (EC1.5>25 μM))"
  },
  {
    "molecule": "CN(C)Cc1cccc(-c2ccc3c(n2)N(C(=O)Nc2ccccn2)[C@H]2CCN3C2)c1 [Example 343]",
    "Tryp AVG EC1.5 (μM)": "B (B (EC1.5 1-25 μM))"
  },
  {
    "molecule": "O=C(Nc1cnccn1)N1c2nc(-c3cncc(F)c3)ccc2N2CC[C@H]1C2 [Example 400]",
    "Tryp AVG EC1.5 (μM)": "B (B (EC1.5 1-25 μM))"
  },
  {
    "molecule": "O=C(Nc1ccc(F)cn1)N1c2nc(-c3cncc(Cl)c3)ccc2N2CCC[C@H]1C2 [Example 401]",
    "Tryp AVG EC1.5 (μM)": "A (A (EC1.5<1 μM))"
  },
  {
    "molecule": "COc1ccc(-c2ccc3c(n2)N(C(=O)Nc2cnccn2)[C@H]2CCN3C2)cn1 [Example 399]",
    "Tryp AVG EC1.5 (μM)": "B (B (EC1.5 1-25 μM))"
  },
  {
    "molecule": "O=C(Nc1ccccn1)N1c2nc(-c3cncc(F)c3)ccc2N2CC[C@H]1C2 [Example 374]",
    "Tryp AVG EC1.5 (μM)": "B (B (EC1.5 1-25 μM))"
  },
  {
    "molecule": "O=C(Nc1cccnc1)N1c2nc(-c3cccc(C(F)(F)F)c3)ccc2N2CCC[C@H]1C2 [314 (5)]",
    "Tryp AVG EC1.5 (μM)": "A (A (EC1.5<1 μM))"
  },
  {
    "molecule": "O=C(Nc1cnccn1)N1c2nc(-c3cc(Cl)cc(Cl)c3)ccc2N2CC[C@H]1C2 [Example 364]",
    "Tryp AVG EC1.5 (μM)": "B (B (EC1.5 1-25 μM))"
  },
  {
    "molecule": "COc1cncc(NC(=O)N2c3nc(-c4cccc(N5CCCC5)c4)ccc3N3CC[C@H]2C3)n1 [Example 366]",
    "Tryp AVG EC1.5 (μM)": "A (A (EC1.5<1 μM))"
  },
  {
    "molecule": "CS(=O)(=O)c1cncc(-c2ccc3c(n2)N(C(=O)Nc2cccnn2)[C@H]2CCCN3C2)c1 [Example 380]",
    "Tryp AVG EC1.5 (μM)": "A (A (EC1.5<1 μM))"
  },
  {
    "molecule": "N#Cc1cc(-c2ccc3c(n2)N(C(=O)Nc2ccccn2)[C@H]2CCN3C2)ccc1F [Example 341]",
    "Tryp AVG EC1.5 (μM)": "A (A (EC1.5<1 μM))"
  },
  {
    "molecule": "CS(=O)(=O)c1cncc(-c2ccc3c(n2)N(C(=O)Nc2cccnc2)[C@H]2CCCN3C2)c1 [Example 376]",
    "Tryp AVG EC1.5 (μM)": "A (A (EC1.5<1 μM))"
  },
  {
    "molecule": "COc1cc(NC(=O)N2c3nc(-c4ccnc(F)c4)ccc3N3CC[C@H]2C3)ncn1 [Example 358]",
    "Tryp AVG EC1.5 (μM)": "C (C (EC1.5>25 μM))"
  },
  {
    "molecule": "O=C(Nc1cccnc1)N1c2nc(-c3cccc(Cl)c3)ccc2N2CCC[C@H]1C2 [Example 407]",
    "Tryp AVG EC1.5 (μM)": "A (A (EC1.5<1 μM))"
  },
  {
    "molecule": "CS(=O)(=O)c1cccc(-c2ccc3c(n2)N(C(=O)Nc2cnccn2)[C@H]2CCN3C2)c1 [Example 415]",
    "Tryp AVG EC1.5 (μM)": "A (A (EC1.5<1 μM))"
  },
  {
    "molecule": "Cc1nc(NC(=O)N2c3nc(-c4cccc(N(C)C)c4)ccc3N3CCC[C@H]2C3)sc1C [Example 383]",
    "Tryp AVG EC1.5 (μM)": "A (A (EC1.5<1 μM))"
  },
  {
    "molecule": "N#Cc1cncc(-c2ccc3c(n2)N(C(=O)Nc2ccccn2)[C@H]2CCN3C2)c1 [Example 373]",
    "Tryp AVG EC1.5 (μM)": "A (A (EC1.5<1 μM))"
  }
]

----------
Target: SIRT1 (Homo sapiens, UniProt Q96EB6)
Experiment: Trp mass spectrometry assay of SIRT1 activation
Type: biochemical
Settings: Trp peptide assay; maximum activity relative to control (100%); read-out: TRP MAX RESP (percent maximum fold activation)
outcome_measure: Emax

[
  {
    "substance_smiles": "Cc1cc(-c2ccc3c(n2)N(C(=O)Nc2cncnc2)[C@H]2CCCN3C2)ccn1",
    "assay_result": "> 150%"
  },
  {
    "substance_smiles": "O=C(Nc1ccccn1)N1c2nc(N3CCC[C@H]3C(F)(F)F)ccc2N2CC[C@H]1C2",
    "assay_result": "> 150%"
  },
  {
    "substance_smiles": "O=C(Nc1cccnc1)N1c2nc(-c3ccc(C(F)(F)F)nc3)ccc2N2CC[C@H]1C2",
    "assay_result": "> 150%"
  },
  {
    "substance_smiles": "N#Cc1ccc(-c2ccc3c(n2)N(C(=O)Nc2cnccn2)[C@H]2CCN3C2)cn1",
    "assay_result": "< 150%"
  }
]

----------
Target: SIRT1 (Homo sapiens, UniProt Q96EB6)
Sequence (Q96EB6 1-747): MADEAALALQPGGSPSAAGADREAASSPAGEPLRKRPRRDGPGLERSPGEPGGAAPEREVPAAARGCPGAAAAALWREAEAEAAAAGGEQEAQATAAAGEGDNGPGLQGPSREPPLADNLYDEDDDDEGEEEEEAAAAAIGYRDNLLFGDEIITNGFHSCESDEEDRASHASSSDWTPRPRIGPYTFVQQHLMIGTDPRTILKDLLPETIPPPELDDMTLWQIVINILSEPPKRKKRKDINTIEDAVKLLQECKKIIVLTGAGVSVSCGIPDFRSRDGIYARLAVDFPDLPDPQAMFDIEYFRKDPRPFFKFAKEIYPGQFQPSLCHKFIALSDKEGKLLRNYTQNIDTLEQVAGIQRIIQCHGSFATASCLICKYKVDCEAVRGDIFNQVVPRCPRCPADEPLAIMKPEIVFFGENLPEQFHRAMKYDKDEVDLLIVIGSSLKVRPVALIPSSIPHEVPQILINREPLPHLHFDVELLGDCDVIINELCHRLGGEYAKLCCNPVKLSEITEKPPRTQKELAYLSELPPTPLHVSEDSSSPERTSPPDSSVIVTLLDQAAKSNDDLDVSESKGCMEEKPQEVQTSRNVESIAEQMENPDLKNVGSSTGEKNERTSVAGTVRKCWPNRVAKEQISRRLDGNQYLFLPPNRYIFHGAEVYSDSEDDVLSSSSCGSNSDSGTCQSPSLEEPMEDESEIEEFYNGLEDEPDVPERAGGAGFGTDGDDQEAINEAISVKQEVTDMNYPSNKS
Assay: Trp mass spectrometry assay of SIRT1 activation
Type: biochemical
Conditions: Trp peptide assay; EC1.5 = concentration that results in 150% activation of SIRT1

[
  {
    "compound": "O=C(Nc1cncc(OC[C@@H](O)CO)n1)N1c2nc(-c3cccc(C(F)(F)F)c3)ccc2N2CC[C@H]1C2",
    "TRP Activity (EC1.5)": "A (A (EC1.5<1 μM))"
  },
  {
    "compound": "O=C(Nc1cnccn1)N1c2nc(-c3cnc(C4CC4)c(C(F)(F)F)c3)ccc2N2CC[C@H]1C2",
    "TRP Activity (EC1.5)": "A (A (EC1.5<1 μM))"
  },
  {
    "compound": "COc1cc(-c2ccc3c(n2)N(C(=O)Nc2cnccn2)[C@H]2CCN3C2)ccn1",
    "TRP Activity (EC1.5)": "B (B (EC1.5 1-25 μM))"
  },
  {
    "compound": "Cc1ccc(-c2ccc3c(n2)N(C(=O)Nc2cncc(C)n2)[C@H]2CCN3C2)cn1",
    "TRP Activity (EC1.5)": "B (B (EC1.5 1-25 μM))"
  },
  {
    "compound": "O=C(Nc1ccccn1)N1c2nc(N3CCOC(C(F)(F)F)C3)ccc2N2CC[C@H]1C2 (stereo partly drawn)",
    "TRP Activity (EC1.5)": "B (B (EC1.5 1-25 μM))"
  },
  {
    "compound": "Cc1cc(-c2ccc3c(n2)N(C(=O)Nc2ccn(C)n2)[C@H]2CCN3C2)ccn1",
    "TRP Activity (EC1.5)": "B (B (EC1.5 1-25 μM))"
  }
]
